Each recorded value in this set is attributed to ChEMBL document CHEMBL5579851.

Give MIC for every item shown.
Test system: Pichia kudriavzevii
assay_info: Antifungal activity against Candida krusei 4996 assessed as inhibition of fungal growth incubated for 48 hrs by CLSI based broth microdilution assay
Assay type: functional
Numbers only, in µg/mL.

smiles_record=C[C@@H](OCc1ccn(Cc2ccc(Cl)cc2Cl)n1)[C@](O)(Cn1cncn1)c1ccc(F)cc1F measurement_label=MIC unit_symbol=µg/mL recorded_value=4

Parameters: items (list). Returns: MIC for each item.
1. Cc1ccccc1Cn1ccc(CO[C@H](C)[C@](O)(Cn2cncn2)c2ccc(F)cc2F)n1
2. C[C@@H](OCc1ccn(Cc2ccc(C#N)cc2)n1)[C@](O)(Cn1cncn1)c1ccc(F)cc1F
3. COc1ccc(Cn2ccc(CO[C@H](C)[C@](O)(Cn3cncn3)c3ccc(F)cc3F)n2)cc1
4. C[C@@H](OCc1ccn(Cc2ccccc2F)n1)[C@](O)(Cn1cncn1)c1ccc(F)cc1F

[8, 8, 8, 8]

Parameters: items (list). Returns: MIC for each item.
1. OC(Cn1cncn1)(Cn1cncn1)c1ccc(F)cc1F
2. C[C@@H](OCc1ccn(Cc2ccc(Br)cc2)n1)[C@](O)(Cn1cncn1)c1ccc(F)cc1F
3. C[C@@H](OCc1ccn(Cc2cccc(F)c2)n1)[C@](O)(Cn1cncn1)c1ccc(F)cc1F
4. C[C@@H](OCc1ccn(Cc2ccccc2)n1)[C@](O)(Cn1cncn1)c1ccc(F)cc1F
5. Cc1ccc(Cn2ccc(CO[C@H](C)[C@](O)(Cn3cncn3)c3ccc(F)cc3F)n2)cc1

1. 64
2. 2
3. 4
4. 4
5. 2

---

Tested on: Pichia kudriavzevii
assay_info: Antifungal activity against Candida krusei 4996 assessed as inhibition of fungal growth incubated for 48 hrs by CLSI based broth microdilution assay
Assay type: functional
measurement_label: MIC

smiles_record=C[C@@H](OCc1ccn(Cc2ccc(F)cc2F)n1)[C@](O)(Cn1cncn1)c1ccc(F)cc1F measurement_label=MIC recorded_value="4 mg/L"
smiles_record=C[C@@H](OCc1ccn(Cc2ccc(OC(F)(F)F)cc2)n1)[C@](O)(Cn1cncn1)c1ccc(F)cc1F measurement_label=MIC recorded_value="2 mg/L"
smiles_record=C[C@@H](OCc1ccn(Cc2c(Cl)cc(Cl)cc2Cl)n1)[C@](O)(Cn1cncn1)c1ccc(F)cc1F measurement_label=MIC recorded_value="8 mg/L"

From here, focus on the item given below.
// lookup MIC for C[C@@H](OCc1ccn(Cc2ccc(C(F)(F)F)cc2)n1)[C@](O)(Cn1cncn1)c1ccc(F)cc1F
4 mg/L

---

Test system: Saccharomyces cerevisiae
assay_info: Antifungal activity against recombinant Saccharomyces cerevisiae Y2711 overexpressing CnErg11 assessed as inhibition of fungal growth incubated for 48 hrs by CLSI based broth microdilution assay
Assay type: functional
measurement_label: MIC
Just the number plus its unit, please.

Solved entries (count: 3):
compound="C[C@@H](c1nc(-c2ccc(C#N)cc2)cs1)[C@](O)(Cn1cncn1)c1ccc(F)cc1F [RAVUCONAZOLE]" recorded_value="8 ng/mL"
compound="CC[C@@H]([C@H](C)O)n1ncn(-c2ccc(N3CCN(c4ccc(OC[C@@H]5CO[C@@](Cn6cncn6)(c6ccc(F)cc6F)C5)cc4)CC3)cc2)c1=O [POSACONAZOLE]" recorded_value="31.3 ng/mL"
compound="OC(Cn1cncn1)(Cn1cncn1)c1ccc(F)cc1F [FLUCONAZOLE]" recorded_value="500 ng/mL"

Parameters: items (list). Returns: MIC for each item.
1. CC(=O)N1CCN(c2ccc(OCC3COC(Cn4ccnc4)(c4ccc(Cl)cc4Cl)O3)cc2)CC1 (configuration not stated) [KETOCONAZOLE]
2. C[C@@H](c1ncncc1F)[C@](O)(Cn1cncn1)c1ccc(F)cc1F [VORICONAZOLE]
3. C[C@@H](OCc1ccn(Cc2ccc(F)cc2)n1)[C@](O)(Cn1cncn1)c1ccc(F)cc1F
4. C[C@@H](OCc1ccn(Cc2ccc(Cl)cc2)n1)[C@](O)(Cn1cncn1)c1ccc(F)cc1F

["8000 ng/mL", "8 ng/mL", "8 ng/mL", "8 ng/mL"]
